experimental-target: D816V KIT (Homo sapiens (Human), UniProt P10721, D816V)
Sequence (P10721 26-976 D816V): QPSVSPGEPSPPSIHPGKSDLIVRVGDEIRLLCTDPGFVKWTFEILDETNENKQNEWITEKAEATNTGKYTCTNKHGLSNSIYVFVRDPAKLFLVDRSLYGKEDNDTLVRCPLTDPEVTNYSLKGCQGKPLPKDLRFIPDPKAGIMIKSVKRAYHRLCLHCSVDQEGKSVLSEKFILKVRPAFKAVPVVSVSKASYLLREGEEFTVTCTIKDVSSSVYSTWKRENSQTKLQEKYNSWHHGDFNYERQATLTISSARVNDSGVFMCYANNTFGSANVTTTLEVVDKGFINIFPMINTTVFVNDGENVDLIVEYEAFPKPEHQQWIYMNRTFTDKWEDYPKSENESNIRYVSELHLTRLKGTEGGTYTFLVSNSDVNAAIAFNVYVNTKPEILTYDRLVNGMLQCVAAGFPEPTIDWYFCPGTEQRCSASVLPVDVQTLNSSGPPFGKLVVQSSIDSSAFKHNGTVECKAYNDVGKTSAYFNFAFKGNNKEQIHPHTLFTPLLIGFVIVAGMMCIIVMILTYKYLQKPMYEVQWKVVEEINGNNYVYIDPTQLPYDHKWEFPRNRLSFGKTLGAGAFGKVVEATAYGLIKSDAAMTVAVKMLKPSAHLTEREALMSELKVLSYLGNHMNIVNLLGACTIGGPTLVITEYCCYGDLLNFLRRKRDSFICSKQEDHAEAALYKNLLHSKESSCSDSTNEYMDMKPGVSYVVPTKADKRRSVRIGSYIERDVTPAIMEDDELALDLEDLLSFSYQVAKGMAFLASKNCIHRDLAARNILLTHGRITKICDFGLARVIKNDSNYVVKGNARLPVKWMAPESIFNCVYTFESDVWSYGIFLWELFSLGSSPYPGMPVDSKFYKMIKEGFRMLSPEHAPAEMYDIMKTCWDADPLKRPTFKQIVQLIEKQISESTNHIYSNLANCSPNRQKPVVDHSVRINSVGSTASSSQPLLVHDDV
measurement-protocol: KIT D816V assay at Km (Caliper electrophoretic mobility shift)
condition-label: biochemical, 15 uM ATP (Km), 90 minutes at 25 C; read-out: INH KIT D816V
property-name: IC50

Sample records with IC50:
Cn1cc(-c2cc3c(N4CCN(c5ncc([C@](C)(N)c6c(F)cc(F)cc6F)cn5)CC4)ncnn3c2)cn1	< 1 nM
Cn1cc(-c2cc3ncnc(N4CCN(c5ncc(C(C)(C)c6ccc(F)cc6)cn5)CC4)n3n2)cn1	10 to 100 nM
Cn1cc(-c2cc3c(N4CCN(c5ncc([C@@](C)(O)c6ccc(F)cc6)cn5)CC4)ncnn3c2)cn1	< 1 nM
Cn1cc(-c2cc3c(N4CCN(c5ncc([C@@](C)(O)c6ccccc6F)cn5)CC4)ncnn3c2)cn1	< 1 nM
C[C@H](c1ccc(F)cc1)c1cnc(N2CCN(c3ncnn4cc(-c5cnn(C)c5)cc34)C[C@H]2CO)nc1	1.01 to 10 nM
Cn1cc(-c2cc3c(N4CCN(c5ncc(C(C)(C)c6ccc(F)cc6)cn5)CC4)ncnn3c2)cn1	1.01 to 10 nM

Quick one: give me IC50 for each item below, same order please.
1. Cn1cc(-c2cc3c(N4CCN(c5ncc(Oc6ccc(F)cc6)cn5)CC4)ncnn3c2)cn1
2. Cc1cc(F)ccc1[C@](C)(O)c1cnc(N2CCN(c3ncnn4cc(-c5cnn(C)c5)cc34)CC2)nc1
3. Cn1cc(-c2cc3c(N4CCN(c5ncc([C@@](O)(CF)c6ccc(F)cc6)cn5)CC4)ncnn3c2)cn1

Reply text:
["10 to 100 nM", "10 to 100 nM", "< 1 nM"]

====

experimental-target: D816V KIT (Homo sapiens (Human), UniProt P10721, D816V)
measurement-protocol: KIT D816V assay at Km (Caliper electrophoretic mobility shift)
condition-label: biochemical, 15 uM ATP (Km), 90 minutes at 25 C; read-out: INH KIT D816V
Provide the recorded IC50 for the entries that follow.

Sample records with IC50:
CN(C)[C@@H](c1ccccc1)c1cnc(N2CCN(c3ncnn4cc(-c5cnn(C)c5)cc34)CC2)nc1	1.01 to 10 nM
C[C@](O)(c1ccc(F)cc1)c1cnc(N2CCN(c3ncnn4cc(-c5ccccc5)cc34)CC2)nc1	1.01 to 10 nM

Query molecule follows.
Inquiry: Which IC50 value is on record for `Cn1cc(-c2cc3c(N4CCN(c5ncc([C@](C)(CO)c6ccc(F)cc6)cn5)CC4)ncnn3c2)cn1` ?
Reply text: 1.01 to 10 nM

====

experimental-target: D816V KIT (Homo sapiens (Human), UniProt P10721, D816V)
measurement-protocol: KIT D816V assay at Km (Caliper electrophoretic mobility shift)
condition-label: biochemical, 15 uM ATP (Km), 90 minutes at 25 C; read-out: INH KIT D816V
Provide the recorded IC50 for the entries that follow.

Cn1cc(-c2cc3c(N4CCN(c5ncc(Cc6ccc(F)cc6)cn5)CC4)ncnn3c2)cn1	< 1 nM

Quick one: give me IC50 for each item below, same order please.
1. Cn1cc(-c2cc3c(N4CCN(c5ncc(C6(c7ccc(F)cc7)COC6)cn5)CC4)ncnn3c2)cn1
2. Cn1cc(-c2cc3c(N4CCN(c5ncc([C@](C)(O)c6c(F)cccc6F)cn5)CC4)ncnn3c2)cn1
3. Cn1cc(-c2cc3c(N4CCN(c5ncc([C@@](C)(N)c6ccc(F)cc6F)cn5)CC4)ncnn3c2)cn1
4. O[C@@](c1ccc(F)cc1)(c1cnc(N2CCN(c3ncnn4cc(-c5cn[nH]c5)cc34)CC2)nc1)C(F)F
5. Cc1c(-c2cc3c(N4CCN(c5ncc(Cc6ccccc6)cn5)[C@H](C)C4)ncnn3c2)cnn1C
6. Cn1cc(-c2cc3c(N4CCN(c5ncc(C(C)(C)c6ccccc6)cn5)CC4)ncnn3c2)cn1
7. NC(=O)c1ccc(-c2cc3c(N4CCN(c5ncc(Cc6ccccc6)cn5)CC4)ncnn3c2)cc1
8. Cc1ncc(-c2cc3c(N4CCN(c5ncc([C@](C)(O)c6ccc(F)cc6)cn5)CC4)ncnn3c2)s1

Reply text:
["1.01 to 10 nM", "< 1 nM", "< 1 nM", "< 1 nM", "1.01 to 10 nM", "1.01 to 10 nM", "1.01 to 10 nM", "1.01 to 10 nM"]

Quick one: give me IC50 for each item below, same order please.
1. C[C@](O)(c1cnc(N2CCN(c3ncnn4cc(-c5cn[nH]c5)cc34)CC2)nc1)c1ccc(F)cc1F
2. C[C@@H](c1ccc(F)cc1)c1cnc(N2CCN(c3ncnn4cc(-c5cnn(C)c5)cc34)C[C@H]2CO)nc1
3. C[C@](N)(c1ccc(F)cc1)c1cnc(N2CCN(c3ncnn4cc(-c5ccc(F)cc5)cc34)CC2)nc1

Reply text:
< 1 nM
1.01 to 10 nM
1.01 to 10 nM

FYI, the data here is from patent US10807985B2.
